Source: patent US8993566B2

- Tested on: human colon cancer cell HT-29
- Assay Protocol: In vitro anti-tumor cell activity (MTT), HT-29
- Assay type: cell-based
- Recorded Conditions: HT-29 cells, MTT, 72 h, Bliss method
We use 0.5 µg/mL as the dividing line for HT-29 IC50: on or above the line is true, below is false.

{"columns": ["Smiles Representation", "Classification"],
 "data": [
  ["COc1cc2c(Oc3ccc(NC(=O)c4nn(-c5ccc(F)c(F)c5)c(=O)n(C)c4=O)cc3F)ccnc2cc1OCCCN1CCOCC1", "false"],
  ["C=CCn1c(=O)c(C(=O)Nc2ccc(Oc3ccnc4cc(OCCCN5CCOCC5)c(OC)cc34)c(F)c2)nn(-c2ccc(Br)cc2)c1=O", "true"],
  ["COc1cc2c(Oc3ccc(NC(=O)c4nn(-c5ccccc5)c(=O)n(C)c4=O)cc3F)ccnc2cc1OCCCN1CCN(C)CC1", "false"],
  ["COc1cc2c(Oc3ccc(NC(=O)c4nn(-c5ccc(Br)cc5)c(=O)n(C)c4=O)cc3F)ccnc2cc1OCCCN1CCCCC1", "false"],
  ["C=CCn1c(=O)c(C(=O)Nc2ccc(Oc3ccnc4cc(OCCCN5CCCC5)c(OC)cc34)c(F)c2)nn(-c2ccc(Cl)cc2)c1=O", "true"],
  ["COc1cc2c(Oc3ccc(NC(=O)c4nn(-c5ccc(Cl)cc5)c(=O)n(C)c4=O)cc3F)ccnc2cc1OCCCN1CCCCC1", "false"]
]}
